Quick reference: TGI of the listed items.
# System: T-47D breast
# assayMethodText: NCI tumour cell line growth inhibition, 48 h

compound	TGI
O=C1Nc2ccc(Br)cc2/C1=N/S(=O)(=O)O	> 100 µM
CCOP(=O)(C/C=C/Cn1ncc(=O)[nH]c1=O)OCC	> 100 µM
c1ccc(C2=NN2c2ccccc2)cc1	> 100 µM
C=C(C)C1CC[C@@](C)(O)[C@H](C#N)C1 (some centres undefined)	> 100 µM
CC1=NN(c2ccc(S(=O)(=O)O)cc2)C2(C1)C(Cl)C(=O)N2c1nc2ccccc2s1 (centres undefined)	> 100 µM
C[C@]12CC[C@H](O[C@@H]3O[C@H](CO[C@@H]4O[C@H](CO)[C@@H](O)[C@H](O)[C@H]4O)[C@@H](O)[C@H](O)[C@H]3O)C[C@@H]1CC[C@@H]1[C@@H]2CC[C@]2(C)[C@@H](C3=CC(=O)OC3)CC[C@]12O	> 95.7 µM
Nc1ccccc1C#C/C=C\C#Cc1ccccc1C#CCO	> 50 µM
CN1CCC2(c3ccccc3)CC(=O)/C(=C/c3ccc(Cl)c(Cl)c3)C1C2 (centres undefined)	> 41.5 µM
COc1cc2c(cc1OC)C(C(CCCCCC(CCC(C)C)C1NCCc3cc(OC)c(OC)cc31)CCC(C)C)NCC2 (centres undefined)	3.06 µM

----------
# System: ACHN renal
# assayMethodText: NCI tumour cell line growth inhibition, 48 h

sampleSmiles	GI50
Nc1[nH]nc2nc(-c3cc(Cl)ccc3Cl)cc(-c3ccc(F)cc3)c12	31.9 µM
O=C(Oc1ccccc1)N(c1ccccc1)c1ccccc1	28.8 µM
C=CCn1c2ccccc2c2c3c(c4c5ccccc5n(CC=C)c4c21)C(=O)N(O)C3=O	1.6 µM
COc1ccc(Cn2cc(COc3cc(/C=C/C(=O)c4cc(OC)c(OC)c(OC)c4)ccc3OC)nn2)cc1	4.47 µM
CN1CCC2(CC1)N=C(SCC(=O)Nc1cnc3ccccc3c1)C(c1ccc(Br)cc1)=N2	1.7 µM

----------
# System: LXFL 529 NSCLC
# assayMethodText: NCI tumour cell line growth inhibition, 48 h
Where a SMILES comes first, the peptide text is derived from it. [ ]: non-standard residue; d: D form. The star is where a group is joined. ξ: configuration not given here. ξNMeF = CNC(Cc1ccccc1)C(=O)O; NMeV = CN[C@H](C(=O)O)C(C)C; Boc = CC(C)(C)OC(=O)*; OBn = c1ccc(CO*)cc1
measuredEndpoint: TGI

compound	result
CC(=O)OCC1OC(n2cccnc2=O)C(OC(C)=O)C1OC(C)=O (centres undefined)	> 100 µM
COc1cccc(NC(=O)CSc2nnc(Cc3ccccc3)o2)c1	> 100 µM
O=C=C=P(c1ccccc1)(c1ccccc1)c1ccccc1	> 100 µM
CN(C)NC1=C([N+](=O)[O-])C=NN(c2ccccc2)C1	3.03 µM
COC(=O)c1c(O)ccc(O)c1C(C(C)=O)C(C)=O	> 100 µM
O=C(/C=C/c1ccc(Cl)c(Cl)c1)c1ccccc1Cl	19.6 µM
N#Cc1c2ccccc2c(Cc2ccc3c(c2)OCCOCCOCCOCCOCCO3)c2ccccc12	30.4 µM
CN(c1ccccc1)c1cc2ccccc2nn1	> 100 µM
Cn1[nH]cc2ccc3nc4ccccc4c(=O)c3c21	> 100 µM
CCN(CC)CCNc1ccc2ncn3c4ccc(OC)cc4c(=O)c1c23	20 µM
CC(=O)[CH-]C(=O)c1ccccc1.CC(=O)[CH-]C(=O)c1ccccc1.Cl.[O-]c1ccnc2ccccc12.[O-]c1ccnc2ccccc12.[Ti+4]	> 100 µM
COc1cccc2c1C(=O)c1c(O)c3c(c(O)c1C2=O)C[C@@](O)(C(=O)CO)CC3OC1CC(N)C(OC2CCCCO2)C(C)O1 (some centres undefined)	3.14 µM
CC(C)[C@@H](C(=O)N(C)[C@H](C(=O)N1CCC[C@H]1C(=O)OCc1ccccc1)C(C)C)N(C)C(=O)C(Cc1ccccc1)N(C)C(=O)[C@H](NC(=O)OC(C)(C)C)C(C)C (some centres undefined) (Boc-[dV][ξNMeF][NMeV][NMeV]P-OBn)	> 100 µM
COC(=O)C1=CC2C(=O)OC1C1C(=O)NC(=O)C21 (centres undefined)	> 100 µM
